Consider the following binders; for each one, report its SPOT peptide array binding signal intensity.
biological target: AgLsb4; test: SPOT peptide array binding signal intensity (averaged, normalized) (arbitrary units (background-subtracted, floor 0; scale differs between SH3 domains)); higher = stronger binding of the SH3 domain to the peptide
Answers are plain numbers.

QLLNPNRRAPRRPLS; 25
LLRRTIPKRPFYHVL; 79
VRVKKRPLIRPLNSS; 81
LKQRFFLMFPKSIIW; 42.5
RVRKTHVPASKRPSG; 18
PPIPNAPLSPAPAVP; 9
ISRRRLPVIMHRLKM; 40
RKNRAPPQRPRFNRD; 131
RFKRHRLEFPFNESE; 78

Please report the measured SPOT peptide array binding signal intensity for `LLIRWLILMPLVGSR`
1800
